All values here come from patent US11230541B2.

assayTarget: NMDA receptor composed of four subunits including 2 sets of heterodimers of NR1 and NR2B (Homo sapiens, UniProt Q13224)
Construct: host or cells: HEK293 (tetracycline-induced expression)
Sequence (Q13224 27-1484, other chains not shown): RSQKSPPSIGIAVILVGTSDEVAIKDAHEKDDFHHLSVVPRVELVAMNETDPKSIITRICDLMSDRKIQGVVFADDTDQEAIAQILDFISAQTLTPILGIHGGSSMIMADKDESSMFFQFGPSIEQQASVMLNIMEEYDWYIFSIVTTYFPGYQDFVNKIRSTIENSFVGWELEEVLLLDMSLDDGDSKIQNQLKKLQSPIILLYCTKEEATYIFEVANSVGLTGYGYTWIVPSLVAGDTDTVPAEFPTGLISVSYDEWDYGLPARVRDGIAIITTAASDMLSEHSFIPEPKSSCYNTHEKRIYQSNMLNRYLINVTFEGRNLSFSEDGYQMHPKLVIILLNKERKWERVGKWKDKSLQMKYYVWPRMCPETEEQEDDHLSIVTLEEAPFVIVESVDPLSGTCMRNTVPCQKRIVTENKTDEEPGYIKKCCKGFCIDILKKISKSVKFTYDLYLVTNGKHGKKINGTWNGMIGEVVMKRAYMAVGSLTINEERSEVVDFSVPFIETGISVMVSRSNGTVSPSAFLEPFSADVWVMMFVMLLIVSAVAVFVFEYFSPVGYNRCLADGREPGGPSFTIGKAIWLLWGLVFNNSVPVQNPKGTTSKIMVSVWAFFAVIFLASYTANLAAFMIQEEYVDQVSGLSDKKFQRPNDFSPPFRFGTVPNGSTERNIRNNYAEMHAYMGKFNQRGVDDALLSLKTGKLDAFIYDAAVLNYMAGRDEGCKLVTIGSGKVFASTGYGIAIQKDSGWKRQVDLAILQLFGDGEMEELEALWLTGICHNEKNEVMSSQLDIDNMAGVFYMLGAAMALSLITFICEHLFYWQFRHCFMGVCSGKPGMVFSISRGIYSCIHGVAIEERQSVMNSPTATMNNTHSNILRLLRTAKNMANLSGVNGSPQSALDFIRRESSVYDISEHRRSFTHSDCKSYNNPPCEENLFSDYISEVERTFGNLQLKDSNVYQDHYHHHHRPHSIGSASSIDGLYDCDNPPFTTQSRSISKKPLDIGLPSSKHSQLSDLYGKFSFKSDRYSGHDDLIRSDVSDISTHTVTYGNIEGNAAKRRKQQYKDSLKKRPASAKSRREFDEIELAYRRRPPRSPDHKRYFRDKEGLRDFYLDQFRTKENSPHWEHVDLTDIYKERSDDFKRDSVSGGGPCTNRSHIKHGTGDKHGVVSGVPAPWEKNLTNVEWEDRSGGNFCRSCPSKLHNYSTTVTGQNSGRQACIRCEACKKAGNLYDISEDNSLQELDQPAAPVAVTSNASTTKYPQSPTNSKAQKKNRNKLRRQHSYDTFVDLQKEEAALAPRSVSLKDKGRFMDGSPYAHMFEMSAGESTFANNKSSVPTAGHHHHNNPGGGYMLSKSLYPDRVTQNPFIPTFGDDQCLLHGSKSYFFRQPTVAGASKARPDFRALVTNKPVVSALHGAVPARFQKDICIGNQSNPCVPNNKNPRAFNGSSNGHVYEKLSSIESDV
assayText: NR2B Ca2+ influx assay (FLIPR, Fluo-4) in HEK293 cells expressing human GRIN1 and GRIN2B
Assay type: cell-based
measurementConditions: HEK293, 10 μM final compound concentration, glutamic acid/glycine-induced Ca2+ influx, read-out: inhibitory rate (10 μM compound concentration)
experimentalEndpoint: inhibition at 10 µM (%)

>>> df
                                   compound  endpointresult
0  O=C(NCc1c(C2CC2)ccc2[nH]ncc12)c1cc(Cl)c(F)c(Cl)c1 [Example 86]              94
1  COc1ccc(NC(=O)NCc2c(OC)ccc3ncn(C)c23)cc1F [Example 225]              84
2  COc1c(F)cc(C(=O)NCc2c(C3CC3)ccc3[nH]ncc23)cc1F [Example 17]              93
3  COCc1ccc2ncn(C)c2c1CNC(=O)c1cnc(OC(F)F)c(F)c1 [Example 281]              82
4  O=C(NCc1c(C2CC2)ccc2[nH]ncc12)c1ccc(OC(F)(F)F)c(F)c1 [Example 88]              93

---

assayTarget: NMDA receptor composed of four subunits including 2 sets of heterodimers of NR1 and NR2B (Homo sapiens)
Construct: host or cells: HEK293 (tetracycline-induced expression)
assayText: NR2B Ca2+ influx assay (FLIPR, Fluo-4) in HEK293 cells expressing human GRIN1 and GRIN2B
Format: cell-based
measurementConditions: HEK293, 10 μM final compound concentration, glutamic acid/glycine-induced Ca2+ influx, read-out: inhibitory rate (10 μM compound concentration)
experimentalEndpoint: inhibition at 10 µM (%)

                                   molsmiles  experimentalendpoint  u  endpointresult
 0  COc1ccc2nc(C)n(C)c2c1CNC(=O)c1ccc(C(F)F)c(Cl)c1   inhibition at 10 µM  %              58
 1  O=C(NCc1cccc2[nH]ncc12)c1cc(F)c(C(F)(F)F)c(F)c1   inhibition at 10 µM  %              80
 2  COc1ccc2ncn(C)c2c1CNC(=O)c1ccc(C(F)(F)F)c(F)c1   inhibition at 10 µM  %              94
 3  O=C(NCc1c(F)ccc2[nH]ncc12)c1ccc(OC(F)(F)F)cc1   inhibition at 10 µM  %              93
 4  O=C(NCc1c(C2CC2)ccc2[nH]ncc12)c1ccc(Cl)c(F)c1   inhibition at 10 µM  %              93
 5  Cc1csc(C(=O)NCc2c(C3CC3)ccc3[nH]ncc23)c1   inhibition at 10 µM  %              89
 6  COc1ccc2ncn(C)c2c1CNC(=O)c1ccc(OC(F)F)cc1F   inhibition at 10 µM  %              63
 7  COc1csc(C(=O)NCc2c(C3CC3)ccc3[nH]ncc23)c1   inhibition at 10 µM  %              86
 8  COc1ccc2ncn(C)c2c1CNC(=O)c1cc(F)c(C(F)(F)F)c(F)c1   inhibition at 10 µM  %              90
 9  CCn1cnc2ccc(OC)c(CNC(=O)c3cnc(OC)c(F)c3)c21   inhibition at 10 µM  %              60
10  CCc1ccc2ncn(C)c2c1CNC(=O)c1ccc(OC(F)F)cc1   inhibition at 10 µM  %              91
11   Cc1ccc2ncn(C)c2c1CNC(=O)c1ccc(C(F)F)cc1   inhibition at 10 µM  %              85
12  COc1ccc(C(=O)NCc2c(OC)ccc3ncn(C)c23)cc1Cl   inhibition at 10 µM  %              89
13  COc1ccc2ncn(C)c2c1CNC(=O)c1cnc(OC(F)F)c(F)c1   inhibition at 10 µM  %              94
14  O=C(NCc1c(C2CC2)ccc2[nH]ncc12)c1csc(C(F)F)c1   inhibition at 10 µM  %              91
15  Cc1ccc2[nH]nnc2c1CNC(=O)c1ccc(C(F)(F)F)c(F)c1   inhibition at 10 µM  %              92
16        COc1ccc2ncn(C)c2c1CNC(=O)Nc1ccccc1   inhibition at 10 µM  %              67
17    O=C(NCc1cccc2[nH]ncc12)c1ccc(Cl)c(F)c1   inhibition at 10 µM  %              74
18  COc1ccc2ncn(C)c2c1CNC(=O)c1ccc(CC(F)(F)F)cc1   inhibition at 10 µM  %              77
